This section presents binders with their documented Kd values.
molecular target: T1, recombinant human extracellular domain of EGFR fused to an IgG1 Fc (human, UniProt P00533 25-645); assay: SPR (ProteOn) per Example 3
T1 construct: Bought (R&D Systems); captured on anti-human Fc IgG for SPR; also called EGFR-Fc
Give your result in nM as a bare value.

Below: 3 binders and their reported Kd.
binder	Kd, nM
ECB95 (designed binder, not shown: small tags and cut ends, Bispecific: P54AR4-83v22, (AP)5, P114AR9P121-A6v2) MLPAPKNLVVSEVTEDSARLSWDDPWAFYESFLIQYQESEKVGEAIVLTVPGSERSYDLTGLKPGTEYTVSIYGVHNVYKDTNIRGLPLSAIFTTAPAPAPAPAPLPAPKNLVVSRVTEDSARLSWTAPDAAFDSFWIRYFEFVGSGEAIVLTVPGSERSYDLTGLKPGTEYVVNILGVKGGSISPPLSAIFTT	1.1
ECB107 (designed binder, not shown: small tags and cut ends, Bispecific: P54AR4-83v23, (AP)5, P114AR9P121-A6v2) MLPAPKNLVVSEVTEDSARLSWDDPHAFYESFLIQYQESEKVGEAIVLTVPGSERSYDLTGLKPGTEYTVSIYGVHNVYKDTNIRGLPLSAIFTTAPAPAPAPAPLPAPKNLVVSRVTEDSARLSWTAPDAAFDSFWIRYFEFVGSGEAIVLTVPGSERSYDLTGLKPGTEYVVNILGVKGGSISPPLSAIFTT	16.9
ECB94 (designed binder, not shown: small tags and cut ends, Bispecific: P54AR4-83v22, (AP)5, P114AR7P94-A3v22) MLPAPKNLVVSEVTEDSARLSWDDPWAFYESFLIQYQESEKVGEAIVLTVPGSERSYDLTGLKPGTEYTVSIYGVHNVYKDTNIRGLPLSAIFTTAPAPAPAPAPLPAPKNLVVSRVTEDSARLSWTAPDAAFDSFWIRYFEFLGSGEAIVLTVPGSERSYDLTGLKPGTEYVVNILGVKGGKISPPLSAIFTT	1

Read the entry ECB15 (designed binder, not shown: small tags and cut ends) MLPAPKNLVVSEVTEDSARLSWDDPWAFYESFLIQYQESEKVGEAIVLTVPGSERSYDLTGLKPGTEYTVSIYGVHNVYKDTNMRGLPLSAIFTTAPAPAPAPAPLPAPKNLVVSRVTEDSARLSWTAPDAAFDSFWIRYFEFLGSGEAIVLTVPGSERSYDLTGLKPGTEYVVNIMGVKGGKISPPLSAIFTT and write its reported Kd.
0.2

Complete the entry with Kd for ECB97 (designed binder, not shown: small tags and cut ends, Bispecific: P54AR4-83v22, (AP)5, P114AR7P95-C5v2) MLPAPKNLVVSEVTEDSARLSWDDPWAFYESFLIQYQESEKVGEAIVLTVPGSERSYDLTGLKPGTEYTVSIYGVHNVYKDTNIRGLPLSAIFTTAPAPAPAPAPLPAPKNLVVSRVTEDSARLSWTAPDAAFDSFWIRYFEFLGSGEAIVLTVPGSERSYDLTGLKPGTEYVVNILSVKGGSISPPLSAIFTT
1.3

Read off the recorded Kd for ECB106 (designed binder, not shown: small tags and cut ends, Bispecific: P54AR4-83v23, (AP)5, P114AR7P94-A3v22) MLPAPKNLVVSEVTEDSARLSWDDPHAFYESFLIQYQESEKVGEAIVLTVPGSERSYDLTGLKPGTEYTVSIYGVHNVYKDTNIRGLPLSAIFTTAPAPAPAPAPLPAPKNLVVSRVTEDSARLSWTAPDAAFDSFWIRYFEFLGSGEAIVLTVPGSERSYDLTGLKPGTEYVVNILGVKGGKISPPLSAIFTT
16.7

For the binder ECB108 (designed binder, not shown: small tags and cut ends, Bispecific: P54AR4-83v23, (AP)5, P114AR9P122-A7v2) MLPAPKNLVVSEVTEDSARLSWDDPHAFYESFLIQYQESEKVGEAIVLTVPGSERSYDLTGLKPGTEYTVSIYGVHNVYKDTNIRGLPLSAIFTTAPAPAPAPAPLPAPKNLVVSRVTEDSARLSWTAPDAAFDSFWIRYFEFVSKGDAIVLTVPGSERSYDLTGLKPGTEYVVNILGVKGGSISPPLSAIFTT , report Kd.
15.3
